This collection of values is drawn from ChEMBL document CHEMBL1153992.

TARGET: Toll-like receptor 7 (Mus musculus) (UniProt P58681)
PROTOCOL NOTES: Induction of TLR7 receptor-mediated C57BL/6 mouse BMD cells activation assessed as upregulation of CD86 at 1 uM after 48 hrs by flow cytometry
Type: cell-based
Activity calls are given as the source filed them. The rule behind the calls is not given here.
Permitted responses: 1 (yes) for active, 0 (no) for inactive

# example entries with known answers
INSERT INTO measurements (structure_smiles, category_label) VALUES
  ('COCCOc1nc(N)c2[nH]c(=O)n(Cc3ccccc3)c2n1', '1 (yes)'),
  ('CCOCc1nc2c(N)nc3ccccc3c2n1CC(C)(C)O', '1 (yes)'),
  ('[N-]=[N+]=NCCCCOc1nc(N)c2[nH]c(=O)n(Cc3ccccc3)c2n1', '1 (yes)'),
  ('[N-]=[N+]=NCCOc1nc(N)c2[nH]c(=O)n(Cc3ccccc3)c2n1', '1 (yes)'),
  ('[N-]=[N+]=NCCOCCOc1nc(N)c2[nH]c(=O)n(Cc3ccccc3)c2n1', '1 (yes)'),
  ('CCCCOc1nc(N)c2[nH]c(=O)n(Cc3ccccc3)c2n1', '1 (yes)'),
  ('[N-]=[N+]=NCCCCCCOc1nc(N)c2[nH]c(=O)n(Cc3ccccc3)c2n1', '1 (yes)'),
  ('[N-]=[N+]=NCCOCCOCCOc1nc(N)c2[nH]c(=O)n(Cc3ccccc3)c2n1', '0 (no)');

QUERY: # fetch the recorded call for "[N-]=[N+]=NCCCOc1nc(N)c2[nH]c(=O)n(Cc3ccccc3)c2n1" here
RESULT: 1 (yes)

QUERY: Proceed to "[N-]=[N+]=NCCCCCOc1nc(N)c2[nH]c(=O)n(Cc3ccccc3)c2n1"
RESULT: 1 (yes)

----------
TARGET: Toll-like receptor 7 (Mus musculus) (UniProt P58681)
Sequence (whole entry): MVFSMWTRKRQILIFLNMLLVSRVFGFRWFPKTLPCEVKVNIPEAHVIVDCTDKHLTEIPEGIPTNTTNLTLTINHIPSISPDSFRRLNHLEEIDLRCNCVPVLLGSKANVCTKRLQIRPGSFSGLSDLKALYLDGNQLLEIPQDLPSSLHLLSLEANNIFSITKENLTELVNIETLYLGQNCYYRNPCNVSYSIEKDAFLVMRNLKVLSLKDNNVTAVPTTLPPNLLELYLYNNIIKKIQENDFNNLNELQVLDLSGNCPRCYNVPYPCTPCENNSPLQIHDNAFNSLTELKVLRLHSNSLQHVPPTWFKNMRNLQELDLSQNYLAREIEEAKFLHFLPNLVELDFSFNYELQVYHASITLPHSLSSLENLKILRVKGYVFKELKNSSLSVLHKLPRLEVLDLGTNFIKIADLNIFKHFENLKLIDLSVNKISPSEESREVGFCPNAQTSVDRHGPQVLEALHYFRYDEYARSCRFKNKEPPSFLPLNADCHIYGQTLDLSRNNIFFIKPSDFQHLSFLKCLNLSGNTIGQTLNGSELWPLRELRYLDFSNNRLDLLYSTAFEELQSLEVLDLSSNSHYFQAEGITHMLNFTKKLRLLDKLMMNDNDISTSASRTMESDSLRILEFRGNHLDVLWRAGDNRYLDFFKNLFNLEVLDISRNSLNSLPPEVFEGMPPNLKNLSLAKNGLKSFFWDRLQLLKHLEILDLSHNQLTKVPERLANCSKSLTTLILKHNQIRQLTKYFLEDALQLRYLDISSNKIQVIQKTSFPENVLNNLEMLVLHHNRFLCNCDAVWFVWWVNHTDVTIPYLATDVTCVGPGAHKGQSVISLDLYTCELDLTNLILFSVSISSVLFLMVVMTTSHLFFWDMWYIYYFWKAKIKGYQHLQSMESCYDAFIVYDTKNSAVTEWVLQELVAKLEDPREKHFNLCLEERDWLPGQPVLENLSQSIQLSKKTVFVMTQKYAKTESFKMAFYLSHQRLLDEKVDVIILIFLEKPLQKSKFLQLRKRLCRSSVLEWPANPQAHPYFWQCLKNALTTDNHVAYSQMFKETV
PROTOCOL NOTES: Induction of TLR7 receptor-mediated C57BL/6 mouse BMD cells activation assessed as upregulation of MHC class-2 at 1 uM after 48 hrs by flow cytometry
Format: cell-based
The source made the active and inactive calls. No cut-off for these calls is given here.
Log the outcome using a class from active, inactive

Consider the following illustrative entries.
INSERT INTO measurements (structure_smiles, target, category_label) VALUES
  ('[N-]=[N+]=NCCOCCOCCOc1nc(N)c2[nH]c(=O)n(Cc3ccccc3)c2n1', 'Toll-like receptor 7 (Mus musculus) (UniProt P58681)', 'inactive'),
  ('[N-]=[N+]=NCCOc1nc(N)c2[nH]c(=O)n(Cc3ccccc3)c2n1', 'Toll-like receptor 7 (Mus musculus) (UniProt P58681)', 'active'),
  ('[N-]=[N+]=NCCCCOc1nc(N)c2[nH]c(=O)n(Cc3ccccc3)c2n1', 'Toll-like receptor 7 (Mus musculus) (UniProt P58681)', 'active');

QUERY: Assay result, entry "COCCOc1nc(N)c2[nH]c(=O)n(Cc3ccccc3)c2n1" — outcome?
RESULT: active

QUERY: Follow-up entry: "[N-]=[N+]=NCCCOc1nc(N)c2[nH]c(=O)n(Cc3ccccc3)c2n1"
RESULT: active

QUERY: Please answer likewise for "[N-]=[N+]=NCCOCCOc1nc(N)c2[nH]c(=O)n(Cc3ccccc3)c2n1"
RESULT: active

QUERY: What do we get for "[N-]=[N+]=NCCCCCOc1nc(N)c2[nH]c(=O)n(Cc3ccccc3)c2n1" ?
RESULT: active

QUERY: Another compound to look at: "CCOCc1nc2c(N)nc3ccccc3c2n1CC(C)(C)O"
RESULT: active

QUERY: Same again, this time with "[N-]=[N+]=NCCCCCCOc1nc(N)c2[nH]c(=O)n(Cc3ccccc3)c2n1"
RESULT: active

QUERY: For "CCCCOc1nc(N)c2[nH]c(=O)n(Cc3ccccc3)c2n1" then?
RESULT: active
